System: HOP-92 cells
Experiment: In vitro cytotoxicity / cell growth inhibition, non-small cell lung cancer
Format: cell-based
Settings: Homo sapiens; HOP-92, non-small cell lung cancer, 48 hr; read-out: log10 G150 (converted)
Recorded measurements of GI50, one per entry
observed property: GI50 (µM)

1. C(CCNCCCN1CC1)CNCCCN1CC1 [Synthesis Example 1, 1,12-Diaziridinyl-4,9-diazadodecane] = 0.219
2. CC(CCNCCCCNCCC(C)N1CC1)N1CC1 (stereo not shown) [Synthesis Example 3, 2,13-Diaziridinyl-5,10-diazatetradecane] = 19.1
3. C(CNCCCN1CC1)CNCCCN1CC1 [Synthesis Example 2, 1,11-Diaziridinyl-4,8-diazaundecane] = 11.2
4. CC1CN1CCCNCCCCNCCCN1CC1C (stereo not shown) [Synthesis Example 4] = 14.5

---

System: CCRF-CEN cells
Experiment: In vitro cytotoxicity / cell growth inhibition, leukemia
Assay type: cell-based
Settings: Homo sapiens, 48 hr, read-out: log10 G150 (converted)
Procedure: The anti-proliferative activities of the aziridinylpolyamines obtained in Synthesis Examples 1-4 were assessed by determining log10 G150 values against human cancer cell lines using the screening strategy described by Boyd et al, Drug Devel. Res. 34:91-109 (1995). More specifically, the compounds were tested at a minimum of five concentrations at 10-fold dilutions using a 48 hr continuous exposure protocol. Each cell line shown in Table 1 below was inoculated onto microtiter plates. […]
Catalogue of molecules with associated GI50
observed property: GI50 (µM)

1. CC1CN1CCCNCCCCNCCCN1CC1C (stereo not shown) [Synthesis Example 4] = 3.98
2. C(CNCCCN1CC1)CNCCCN1CC1 [Synthesis Example 2, 1,11-Diaziridinyl-4,8-diazaundecane] = 3.72
3. C(CCNCCCN1CC1)CNCCCN1CC1 [Synthesis Example 1, 1,12-Diaziridinyl-4,9-diazadodecane] = 0.0631
4. CC(CCNCCCCNCCC(C)N1CC1)N1CC1 (stereo not shown) [Synthesis Example 3, 2,13-Diaziridinyl-5,10-diazatetradecane] = 4.79

---

Target or system HL-60 (TB) cells; recorded quantity GI50.
observed property: GI50 (µM)

1. C(CNCCCN1CC1)CNCCCN1CC1 [Synthesis Example 2, 1,11-Diaziridinyl-4,8-diazaundecane] = 2.69
2. C(CCNCCCN1CC1)CNCCCN1CC1 [Synthesis Example 1, 1,12-Diaziridinyl-4,9-diazadodecane] = 0.0355
3. CC(CCNCCCCNCCC(C)N1CC1)N1CC1 (stereo not shown) [Synthesis Example 3, 2,13-Diaziridinyl-5,10-diazatetradecane] = 3.31
4. CC1CN1CCCNCCCCNCCCN1CC1C (stereo not shown) [Synthesis Example 4] = 2.95

---

Tested on: A549/ATCC cells
Test: In vitro cytotoxicity / cell growth inhibition, non-small cell lung cancer
Format: cell-based
Conditions: Homo sapiens, 48 hr, read-out: log10 G150 (converted)
Catalogue of GI50 readings, one per entry.
observed property: GI50 (µM)

1) C(CCNCCCN1CC1)CNCCCN1CC1 [Synthesis Example 1, 1,12-Diaziridinyl-4,9-diazadodecane] = 0.891
2) CC(CCNCCCCNCCC(C)N1CC1)N1CC1 (stereo not shown) [Synthesis Example 3, 2,13-Diaziridinyl-5,10-diazatetradecane] = 29.5
3) C(CNCCCN1CC1)CNCCCN1CC1 [Synthesis Example 2, 1,11-Diaziridinyl-4,8-diazaundecane] = 13.2
4) CC1CN1CCCNCCCCNCCCN1CC1C (stereo not shown) [Synthesis Example 4] = 18.2
